Attribution: the supplement of paper PMC12042874

method description: amyloid nucleation score (Sup35N fusion, yeast selection) (log enrichment); library NNK3; higher = more nucleation; inactive = no reads after selection;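 further: zero at mode of non-aggregating sequences after 7 days selection at 30°C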
experimental endpoint: amyloid nucleation score

Worked cases, amyloid nucleation score given:
FLNRSTAIWKYRLIAQRVGD
inactive
YFPSSCCNDFVFSSLEFQSM
2.12
DTTFMQYVAIYVLVSKLFIE
inactive
VPMFSSLCPYTISLFQGTSP
inactive
FTWARETVPVVQNWFGTREV
inactive
IYISFWR
0.521
CSPKPNKKAAMYKSAYNPGM
0.629
CMFRLMIPSIKTNAISIALC
0.068
LWWCTLYSILYGTLSTYSCS
inactive
GSMSSCLVKRLNC
inactive

Parameters: items (list). Returns: amyloid nucleation score for each item.
1. NAGHICFVVVTKWREFASVY
2. CYPTSFGCFFVFFWYYVYCG
3. GNLDTS
4. RGSGILRVLTKSRWCICMGT
5. KISFWVRERFNYRCTIGIEC

Reply:
1: inactive; 2: inactive; 3: -0.668; 4: inactive; 5: inactive

Short answer for `AYAIGHEDCEVYQLLVKLLG` : amyloid nucleation score was inactive
